The reported numbers originate from patent US7019109B2.

Give measured IC50 for each item. Keep answers brief.
ASSAY_SYSTEM: human SSTR5 (Homo sapiens, UniProt P35346)
Construct: expressed in transfected cells; host or cells: CHO-K1 cells and CCL39 cells
Sequence (P35346 whole entry): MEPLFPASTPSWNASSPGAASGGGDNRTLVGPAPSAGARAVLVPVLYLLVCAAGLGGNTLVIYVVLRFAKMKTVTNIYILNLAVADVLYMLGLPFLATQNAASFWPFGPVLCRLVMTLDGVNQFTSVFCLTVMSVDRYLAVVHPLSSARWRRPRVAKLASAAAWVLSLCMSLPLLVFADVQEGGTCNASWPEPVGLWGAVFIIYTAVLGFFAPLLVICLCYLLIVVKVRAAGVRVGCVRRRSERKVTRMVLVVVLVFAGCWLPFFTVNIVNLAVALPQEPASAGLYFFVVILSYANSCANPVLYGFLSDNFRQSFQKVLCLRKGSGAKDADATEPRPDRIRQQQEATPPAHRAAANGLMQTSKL
EXPERIMENT_NOTES: Displacement of 125I-[Leu8,D-Trp22,Tyr25]-SRIF-28 from cloned SSTR5 (receptor autoradiography)
Type: binding
PROTOCOL_CONDITIONS: read-out: IC50 (nM) mSSTR5
*1 amine or outer side, *2 acyl side, *3 side chain or, on linkers, in order; H or OH if unused. Where a SMILES comes first, the peptide text is derived from it. Bridges are numbered along the chain shown (N, C = ends). [ ]: non-standard residue; d: D form. The star is where a group is joined. NMePhe(4-CH2NHiPr) = CN[C@@H](Cc1ccc(CNC(C)C)cc1)C(=O)O; Tyr(Nα-carbamoyl) = NC(=O)N[C@@H](Cc1ccc(O)cc1)C(=O)*; Phe(4-CH2NHiPr) = CC(C)NCc1ccc(C[C@H](N)C(=O)O)cc1; Tyr(3-I) = N[C@@H](Cc1ccc(O)c(I)c1)C(=O)O; X3 = NC(=O)N[C@@H](Cc1ccc(O)c(I)c1)C(=O)*; X1 = NC(=O)N[C@@H](CS[*:2])C(=O)[*:1]; d2Nal = N[C@H](Cc1ccc2ccccc2c1)C(=O)O; X2 = NC(=O)N[C@H](CS[*:2])C(=O)[*:1]; NMeS = CN[C@@H](CO)C(=O)O

Task: Under human SSTR5 (Homo sapiens, UniProt P35346): IC50 value of CC(C)NCc1ccc(C[C@@H]2NC(=O)[C@@H](Cc3c[nH]c4ccccc34)NC(=O)[C@H](Cc3ccccc3)NC(=O)[C@H](Cc3ccccc3)NC(=O)[C@H](CCCCN)NC(=O)[C@H](NC(=O)[C@H](Cc3ccc(O)cc3)NC(N)=O)CSSC[C@@H](C(=O)O)NC(=O)[C@H](CO)NC(=O)[C@H]([C@@H](C)O)NC(=O)[C@H](Cc3ccccc3)NC(=O)[C@H]([C@@H](C)O)NC2=O)cc1 [Peptide No. 14C] ({Tyr(Nα-carbamoyl)}-[dC]KFF[dW][Phe(4-CH2NHiPr)]TFTSC-OH; disulfide 1-11) ?
Result: > 1000 nM

Task: Also, CC(C)NCc1ccc(C[C@H]2C(=O)N[C@@H]([C@@H](C)O)C(=O)N[C@@H](Cc3ccccc3)C(=O)N[C@@H]([C@@H](C)O)C(=O)N[C@@H](CO)C(=O)N[C@H](C(=O)O)CSSC[C@H](N)C(=O)N[C@@H](CCCCN)C(=O)N[C@@H](Cc3ccccc3)C(=O)N[C@@H](Cc3ccccc3)C(=O)N[C@H](Cc3c[nH]c4ccccc34)C(=O)N2C)cc1 [Peptide No. 13] (H-CKFF[dW][NMePhe(4-CH2NHiPr)]TFTSC-OH; disulfide 1-11) please.
Result: > 10000 nM

Task: Also, CC(C)NCc1ccc(C[C@@H]2NC(=O)[C@@H](Cc3c[nH]c4ccccc34)NC(=O)[C@H](Cc3ccccc3)NC(=O)[C@H](Cc3ccccc3)NC(=O)[C@H](CCCCN)NC(=O)[C@@H](N)CSSC[C@@H](C(=O)O)NC(=O)[C@H](CO)N(C)C(=O)[C@H]([C@@H](C)O)NC(=O)[C@H](Cc3ccccc3)NC(=O)[C@H]([C@@H](C)O)NC2=O)cc1 [Peptide No. 22A] (H-CKFF[dW][Phe(4-CH2NHiPr)]TFT[NMeS]C-OH; disulfide 1-11) please.
Result: > 1000 nM

Task: Also, CC(C)NCc1ccc(C[C@H]2C(=O)N[C@@H]([C@@H](C)O)C(=O)N[C@@H](Cc3ccc(O)cc3)C(=O)N[C@@H]([C@@H](C)O)C(=O)N[C@@H](CO)C(=O)N[C@H](C(=O)O)CSSC[C@H](NC(N)=O)C(=O)N[C@@H](CCCCN)C(=O)N[C@@H](Cc3ccccc3)C(=O)N[C@@H](Cc3ccccc3)C(=O)N[C@H](Cc3c[nH]c4ccccc34)C(=O)N2C)cc1 [Peptide No. 12] (KFF[dW][NMePhe(4-CH2NHiPr)]TYTSC-OH; linker N-10 via X1) please.
Result: > 10000 nM

Task: Also, CC(C)NCc1ccc(C[C@H]2C(=O)N[C@@H]([C@@H](C)O)C(=O)N[C@@H](Cc3ccc(O)c(I)c3)C(=O)N[C@@H]([C@@H](C)O)C(=O)N[C@@H](CO)C(=O)N[C@H](C(=O)O)CSSC[C@H](NC(N)=O)C(=O)N[C@@H](CCCCN)C(=O)N[C@@H](Cc3ccccc3)C(=O)N[C@@H](Cc3ccccc3)C(=O)N[C@H](Cc3c[nH]c4ccccc34)C(=O)N2C)cc1 [Peptide No. 12D] (KFF[dW][NMePhe(4-CH2NHiPr)]T[Tyr(3-I)]TSC-OH; linker N-10 via X1) please.
Result: > 1000 nM

Task: Also, CC(C)NCc1ccc(C[C@H]2C(=O)N[C@@H]([C@@H](C)O)C(=O)N[C@@H](Cc3ccccc3)C(=O)N[C@@H]([C@@H](C)O)C(=O)N[C@@H](CO)C(=O)N[C@H](C(=O)O)CSSC[C@H](N)C(=O)N[C@@H](CCCCN)C(=O)N[C@@H](Cc3ccccc3)C(=O)N[C@@H](Cc3ccccc3)C(=O)N[C@H](Cc3ccc4ccccc4c3)C(=O)N2C)cc1 [Peptide No. 15] (H-CKFF[d2Nal][NMePhe(4-CH2NHiPr)]TFTSC-OH; disulfide 1-11) please.
Result: > 10000 nM

Task: Also, CC(C)NCc1ccc(C[C@@H]2NC(=O)[C@@H](Cc3c[nH]c4ccccc34)NC(=O)[C@H](Cc3ccccc3)NC(=O)[C@H](Cc3ccccc3)NC(=O)[C@H](CCCCN)NC(=O)[C@@H](NC(=O)[C@H](Cc3ccc(O)c(I)c3)NC(N)=O)CSSC[C@@H](C(=O)O)NC(=O)[C@H](CO)NC(=O)[C@H]([C@@H](C)O)NC(=O)[C@H](Cc3ccccc3)NC(=O)[C@H]([C@@H](C)O)NC2=O)cc1 [Peptide No. 14B] (X3-CKFF[dW][Phe(4-CH2NHiPr)]TFTSC-OH; disulfide 1-11) please.
Result: > 1000 nM

Task: Also, CC(C)NCc1ccc(C[C@H]2C(=O)N[C@@H]([C@@H](C)O)C(=O)N[C@@H](Cc3ccc(O)cc3)C(=O)N[C@@H]([C@@H](C)O)C(=O)N[C@@H](CO)C(=O)N[C@H](C(=O)O)CSSC[C@H](NC(N)=O)C(=O)N[C@@H](CCCCN)C(=O)N[C@@H](Cc3ccccc3)C(=O)N[C@@H](Cc3ccccc3)C(=O)N[C@H](Cc3ccc4ccccc4c3)C(=O)N2C)cc1 [Peptide No. 16] (KFF[d2Nal][NMePhe(4-CH2NHiPr)]TYTSC-OH; linker N-10 via X1) please.
Result: > 10000 nM

Task: Also, CC(C)NCc1ccc(C[C@@H]2NC(=O)[C@@H](Cc3c[nH]c4ccccc34)NC(=O)[C@H](Cc3ccccc3)NC(=O)[C@H](Cc3ccccc3)NC(=O)[C@H](CCCCN)NC(=O)[C@H](NC(N)=O)CSSC[C@@H](C(=O)O)NC(=O)[C@H](CO)NC(=O)[C@H]([C@@H](C)O)NC(=O)[C@H](Cc3ccc(O)cc3)NC(=O)[C@H]([C@@H](C)O)NC2=O)cc1 [Peptide No. 12C] (KFF[dW][Phe(4-CH2NHiPr)]TYTSC-OH; linker N-10 via X2) please.
Result: > 1000 nM

Task: Also, CC(C)NCc1ccc(C[C@@H]2NC(=O)[C@@H](Cc3c[nH]c4ccccc34)NC(=O)[C@H](Cc3ccccc3)NC(=O)[C@H](Cc3ccccc3)NC(=O)[C@H](CCCCN)NC(=O)[C@@H](NC(=O)[C@H](Cc3ccc(O)cc3)NC(N)=O)CSSC[C@@H](C(=O)O)NC(=O)[C@H](CO)NC(=O)[C@H]([C@@H](C)O)NC(=O)[C@H](Cc3ccccc3)NC(=O)[C@H]([C@@H](C)O)NC2=O)cc1 [Peptide No. 14A] ({Tyr(Nα-carbamoyl)}-CKFF[dW][Phe(4-CH2NHiPr)]TFTSC-OH; disulfide 1-11) please.
Result: > 1000 nM
